- assay: Skin permeability, Franz Cell diffusion cell with artificial skin, Transdermal Diffusion Tester, BCA assay
- Type: in vitro ADME
- reported conditions: 32° C., 1.0 mg/mL in PBS, after 24 hours
Square brackets hold non-standard residues; d marks the D form. Peptide text beside a SMILES is read from it.
experimental endpoint: Average Permeation Rate After 24 Hours (%)

| compound | display unit | measurement |
| --- | --- | --- |
| CSCC[C@@H]1NC(=O)[C@H](Cc2c[nH]c3ccccc23)NC(=O)[C@@H]2CCCN2C(=O)[C@H](CCC(=O)O)NC(=O)[C@H](CCCNC(=N)N)NC(=O)[C@@H](CC(C)C)NC(=O)[C@@H]2CCCN2C1=O [Compound 8, D-Leu Arg Glu Pro Trp Met Pro] (cyclo(EPWMP[dL]R)) | % | 35.20 |
| CC(C)[C@H]1NC(=O)[C@@H]([C@H](C)O)NC(=O)[C@H](CCC(=O)O)NC(=O)[C@H]2CCCN2C(=O)[C@H]2CCCN2C(=O)[C@H](Cc2c[nH]c3ccccc23)NC1=O [Compound 3, Glu D-Thr D-Val Trp D-Pro D-Pro] (cyclo(E[dT][dV]W[dP][dP])) | % | 36.59 |
| CC(C)C[C@H]1NC(=O)[C@@H]2CCCN2C(=O)[C@@H](Cc2ccccc2)NC(=O)[C@H](CCCNC(=N)N)NC(=O)[C@H]([C@@H](C)O)NC(=O)[C@H]2CCCN2C1=O [Compound 7, Thr Arg D-Phe Pro D-Leu D-Pro] (cyclo(P[dL][dP]TR[dF])) | % | 38.84 |
| CC(C)[C@H]1NC(=O)[C@@H](Cc2ccccc2)NC(=O)[C@@H](CCCNC(=N)N)NC(=O)[C@@H]2CCCN2C(=O)[C@H](CCC(=O)O)NC(=O)[C@H](Cc2ccc(O)cc2)NC1=O [Compound 1, D-Arg D-Phe D- Val Tyr Glu Pro] (cyclo(EP[dR][dF][dV]Y)) | % | 42.06 |

Source listed as patent US12180307B2.
